TEST TARGET: GST-Aq-NF-kB (Amphimedon queenslandica, UniProt A9Y5G7 2-389)
Sequence: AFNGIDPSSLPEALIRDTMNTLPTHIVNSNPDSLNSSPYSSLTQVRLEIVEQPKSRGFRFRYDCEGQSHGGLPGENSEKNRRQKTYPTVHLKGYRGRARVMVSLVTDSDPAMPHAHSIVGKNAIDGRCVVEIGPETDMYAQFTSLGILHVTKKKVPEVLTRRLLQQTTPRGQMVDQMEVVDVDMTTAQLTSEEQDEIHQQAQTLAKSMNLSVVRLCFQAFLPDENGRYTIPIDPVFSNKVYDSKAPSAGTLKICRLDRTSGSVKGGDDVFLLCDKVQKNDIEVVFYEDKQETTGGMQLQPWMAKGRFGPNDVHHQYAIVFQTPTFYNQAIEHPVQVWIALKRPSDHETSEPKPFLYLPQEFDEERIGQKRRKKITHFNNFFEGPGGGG
METHOD: protein-binding microarray (PBM); PBM: ~300 nM protein, 6 mM HEPES pH 7.8, 80 mM KCl, 0.5 mM EDTA, 0.5 mM EGTA, 6% glycerol, 35 ng/ul poly-dIdC, 1% milk, 1 h, room temperature; high values mean tight binding
CONDITION LABEL: dsDNA, one strand shown
Exercise: state measured binding signal for each of the sequences provided.
Numbers only, in z-score.

These recorded examples may help you get a feel for the data.
CCGATTAACATCAGAATCCCCCCTGATGTTAATCGGGTCTTGATTCGCTTGACGCTGCTG :: 7.37
CCGATTAACATCACAGAATCCCCTGATGTTAATCGGGTCTTGATTCGCTTGACGCTGCTG :: 6.21
CCGATTAACATCAGGGAGTACCCTGATGTTAATCGGGTCTTGATTCGCTTGACGCTGCTG :: 6.66

Please look at the items below and tell me binding signal for each one, in order.
1. CCGATTAACATCAAAGTGTCCCCTGATGTTAATCGGGTCTTGATTCGCTTGACGCTGCTG
2. CCGATTAACATCACAGGAATTCCTGATGTTAATCGGGTCTTGATTCGCTTGACGCTGCTG

[4.15, 2.17]

###

TEST TARGET: GST-Dm-Relish (Drosophila melanogaster, UniProt Q94527 99-473)
Sequence: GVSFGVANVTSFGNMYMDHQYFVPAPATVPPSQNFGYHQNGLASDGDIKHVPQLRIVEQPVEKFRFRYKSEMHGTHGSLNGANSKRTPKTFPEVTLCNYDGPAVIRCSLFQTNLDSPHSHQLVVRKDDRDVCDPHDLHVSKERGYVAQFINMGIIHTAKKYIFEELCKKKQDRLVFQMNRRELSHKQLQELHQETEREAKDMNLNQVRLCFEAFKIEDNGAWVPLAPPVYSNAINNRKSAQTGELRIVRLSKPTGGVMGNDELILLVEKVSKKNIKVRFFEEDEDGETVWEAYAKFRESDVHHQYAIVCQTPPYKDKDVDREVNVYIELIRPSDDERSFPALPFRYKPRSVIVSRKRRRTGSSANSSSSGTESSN
METHOD: protein-binding microarray (PBM); PBM: ~300 nM protein, 6 mM HEPES pH 7.8, 80 mM KCl, 0.5 mM EDTA, 0.5 mM EGTA, 6% glycerol, 35 ng/ul poly-dIdC, 1% milk, 1 h, room temperature; high values mean tight binding
CONDITION LABEL: dsDNA, one strand shown
With a cut-off of 6 z-score, any binding signal strictly below it is called MET; any binding signal meeting it or above is called NOT MET.

CCGATTAACATCAAAAAATCACCTGATGTTAATCGGGTCTTGATTCGCTTGACGCTGCTG :: NOT MET
CCGATTAACATCAGGGAAAAAACTGATGTTAATCGGGTCTTGATTCGCTTGACGCTGCTG :: MET
CCGATTAACATCAGGGGAGGAAATGATGTTAATCGGGTCTTGATTCGCTTGACGCTGCTG :: MET
CCGATTAACATCAGGGATCGCCCTGATGTTAATCGGGTCTTGATTCGCTTGACGCTGCTG :: MET

State whether 6 z-score exceeds binding signal recorded for "CCGATTAACATCACAGAAATCCCTGATGTTAATCGGGTCTTGATTCGCTTGACGCTGCTG" .
MET

Please check: binding signal for "CCGATTAACATCAACATTCCCCCTGATGTTAATCGGGTCTTGATTCGCTTGACGCTGCTG" , strictly under 6 z-score or not?
MET

Does this sequence meet the criterion binding signal < 6 z-score? "CCGATTAACATCAGGATTCCCCATGATGTTAATCGGGTCTTGATTCGCTTGACGCTGCTG"
NOT MET

# check: binding signal < 6 z-score for "CCGATTAACATCAGGGAACACCCTGATGTTAATCGGGTCTTGATTCGCTTGACGCTGCTG"
NOT MET

###

TEST TARGET: GST-Co-NF-kB (Capsaspora owczarzaki, UniProt F1ARL5 200-546)
Sequence: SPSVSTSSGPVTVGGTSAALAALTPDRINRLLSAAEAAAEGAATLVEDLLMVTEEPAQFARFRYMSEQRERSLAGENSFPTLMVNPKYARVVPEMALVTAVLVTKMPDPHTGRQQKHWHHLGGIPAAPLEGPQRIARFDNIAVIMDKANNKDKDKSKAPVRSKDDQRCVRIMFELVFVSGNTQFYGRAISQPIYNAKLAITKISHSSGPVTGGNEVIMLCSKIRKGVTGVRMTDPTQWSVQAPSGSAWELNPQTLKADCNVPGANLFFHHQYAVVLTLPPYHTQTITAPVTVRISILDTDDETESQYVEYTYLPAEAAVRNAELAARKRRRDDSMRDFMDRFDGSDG
METHOD: protein-binding microarray (PBM); PBM: ~300 nM protein, 6 mM HEPES pH 7.8, 80 mM KCl, 0.5 mM EDTA, 0.5 mM EGTA, 6% glycerol, 35 ng/ul poly-dIdC, 1% milk, 1 h, room temperature; Ap Aiptasia and Nv Nematostella (sea anemones) / Co Capsaspora / Aq Amphimedon (sponge) / Dm Drosophila / Hu human; RHD is the Rel homology domain; high values mean tight binding
CONDITION LABEL: dsDNA, one strand shown
binding signal less than 2 z-score is yes (1); binding signal greater than or equal to 2 z-score is no (0).

Some solved cases for reference:
CCGATTAACATCACCCTTTTCCCTGATGTTAATCGGGTCTTGATTCGCTTGACGCTGCTG :: no (0)
CCGATTAACATCAACCTCCCCCCTGATGTTAATCGGGTCTTGATTCGCTTGACGCTGCTG :: no (0)
CCGATTAACATCACAGATTTCCCTGATGTTAATCGGGTCTTGATTCGCTTGACGCTGCTG :: no (0)
CCGATTAACATCACAATTCCCCCTGATGTTAATCGGGTCTTGATTCGCTTGACGCTGCTG :: no (0)
CCGATTAACATCACACCCGCAACTGATGTTAATCGGGTCTTGATTCGCTTGACGCTGCTG :: yes (1)
CCGATTAACATCACGGAGTCCCCTGATGTTAATCGGGTCTTGATTCGCTTGACGCTGCTG :: no (0)

Consider the sequence "CCGATTAACATCAGTTTGGGAAATGATGTTAATCGGGTCTTGATTCGCTTGACGCTGCTG" . Is its binding signal strictly less than 2 z-score?
no (0)

Is binding signal of "CCGATTAACATCAGGGAAGTACCTGATGTTAATCGGGTCTTGATTCGCTTGACGCTGCTG" strictly below 2 z-score?
yes (1)

Please state whether binding signal is below 2 z-score for "CCGATTAACATCAGGGGAACCACTGATGTTAATCGGGTCTTGATTCGCTTGACGCTGCTG"
no (0)

In plain terms, does "CCGATTAACATCACGTACTCCCCTGATGTTAATCGGGTCTTGATTCGCTTGACGCTGCTG" come in under 2 z-score for binding signal?
no (0)

Dear colleague, could you confirm whether binding signal of "CCGATTAACATCAAGATTCCCCTTGATGTTAATCGGGTCTTGATTCGCTTGACGCTGCTG" falls below 2 z-score? Thanks.
no (0)

Quick check: does "CCGATTAACATCAAATTTTCCCGTGATGTTAATCGGGTCTTGATTCGCTTGACGCTGCTG" have binding signal under 2 z-score?
no (0)

Record "CCGATTAACATCAGCACCCCCCCTGATGTTAATCGGGTCTTGATTCGCTTGACGCTGCTG" : is its binding signal strictly below 2 z-score?
no (0)

Dear reviewer, please state whether "CCGATTAACATCAAATCCCCCCGTGATGTTAATCGGGTCTTGATTCGCTTGACGCTGCTG" has binding signal strictly beneath 2 z-score.
no (0)

In the record for "CCGATTAACATCAGGGAACTACCTGATGTTAATCGGGTCTTGATTCGCTTGACGCTGCTG" , is binding signal less than 2 z-score?
yes (1)

Criterion: binding signal strictly below 2 z-score. Is it met by "CCGATTAACATCAGGGGACTTCATGATGTTAATCGGGTCTTGATTCGCTTGACGCTGCTG" ?
no (0)

Identify whether the sequence "CCGATTAACATCAGAAGTTCCCATGATGTTAATCGGGTCTTGATTCGCTTGACGCTGCTG" records binding signal below 2 z-score.
no (0)
